tested on: rat aortic rings; assay: animal or person; format: in vivo, Sprague-Dawley rats; conditions: Rattus norvegicus, iv; aortic rings preconstricted with 10 nM phenylephrine; all treatment groups; read-out: IC50 for all dose response curves (acetylcholine relaxation of aortic ring)
readout label: IC50
# output: numeric value plus its unit

Exam item: // output IC50; input `CC(=O)OCC[N+](C)(C)C` ; system rat aortic rings
Marked response: 100 nM
